Data origin: ChEMBL document CHEMBL1134914

ASSAY_TARGET: Caspase-3 (Homo sapiens, UniProt P42574)
Sequence (P42574 29-175 limits assumed): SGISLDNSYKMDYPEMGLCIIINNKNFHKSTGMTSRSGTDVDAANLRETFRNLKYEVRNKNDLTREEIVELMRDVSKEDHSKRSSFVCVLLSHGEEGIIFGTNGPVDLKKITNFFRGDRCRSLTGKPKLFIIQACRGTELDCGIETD
Sequence (P42574 176-277 limits assumed): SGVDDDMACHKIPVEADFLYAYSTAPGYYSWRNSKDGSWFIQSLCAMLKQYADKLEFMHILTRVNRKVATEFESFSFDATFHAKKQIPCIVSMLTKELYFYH
ASSAY_REMARKS: Inhibitory concentration against caspase-3
PARAMETER: IC50 (nM)

Some solved entries appear below for comparison.
- CC(C)C[C@H](NC(=O)COc1ccnc2ccccc12)C(=O)N[C@H]1CC(=O)OC1O (some centres undefined): 232
- CC(C)C[C@H](NC(=O)COc1ccccc1OCc1ccccc1)C(=O)N[C@H]1CC(=O)OC1O (some centres undefined): 222
- CC(C)C[C@H](NC(=O)COc1ccccc1C1CCCC1)C(=O)N[C@H]1CC(=O)OC1O (some centres undefined): 197
- CC(C)C[C@H](NC(=O)COc1ccc(-c2ccccc2)cc1)C(=O)N[C@H]1CC(=O)OC1O (some centres undefined): 763
- CC(C)C[C@H](NC(=O)CCc1cccc2ccccc12)C(=O)N[C@H]1CC(=O)OC1O (some centres undefined): 1590
- CC(C)C[C@H](NC(=O)COc1ccccc1-c1ccccc1)C(=O)N[C@H]1CC(=O)OC1O (some centres undefined): 95

1. CC(C)C[C@H](NC(=O)/C=C/c1ccccc1)C(=O)N[C@H]1CC(=O)OC1O (some centres undefined)
2. CC(C)C[C@H](NC(=O)CSc1cccc2ccccc12)C(=O)N[C@H]1CC(=O)OC1O (some centres undefined)
Query: Sort 1 and 2 by IC50 descending and give the first. Answer with the label corresponding to your selection.
Result: 1
